- TEST SYSTEM: p101/p110γ protein (PI3Kγ) (Homo sapiens, UniProt P48736)
- Construct: HA
- Sequence (P48736 whole entry, species assumed): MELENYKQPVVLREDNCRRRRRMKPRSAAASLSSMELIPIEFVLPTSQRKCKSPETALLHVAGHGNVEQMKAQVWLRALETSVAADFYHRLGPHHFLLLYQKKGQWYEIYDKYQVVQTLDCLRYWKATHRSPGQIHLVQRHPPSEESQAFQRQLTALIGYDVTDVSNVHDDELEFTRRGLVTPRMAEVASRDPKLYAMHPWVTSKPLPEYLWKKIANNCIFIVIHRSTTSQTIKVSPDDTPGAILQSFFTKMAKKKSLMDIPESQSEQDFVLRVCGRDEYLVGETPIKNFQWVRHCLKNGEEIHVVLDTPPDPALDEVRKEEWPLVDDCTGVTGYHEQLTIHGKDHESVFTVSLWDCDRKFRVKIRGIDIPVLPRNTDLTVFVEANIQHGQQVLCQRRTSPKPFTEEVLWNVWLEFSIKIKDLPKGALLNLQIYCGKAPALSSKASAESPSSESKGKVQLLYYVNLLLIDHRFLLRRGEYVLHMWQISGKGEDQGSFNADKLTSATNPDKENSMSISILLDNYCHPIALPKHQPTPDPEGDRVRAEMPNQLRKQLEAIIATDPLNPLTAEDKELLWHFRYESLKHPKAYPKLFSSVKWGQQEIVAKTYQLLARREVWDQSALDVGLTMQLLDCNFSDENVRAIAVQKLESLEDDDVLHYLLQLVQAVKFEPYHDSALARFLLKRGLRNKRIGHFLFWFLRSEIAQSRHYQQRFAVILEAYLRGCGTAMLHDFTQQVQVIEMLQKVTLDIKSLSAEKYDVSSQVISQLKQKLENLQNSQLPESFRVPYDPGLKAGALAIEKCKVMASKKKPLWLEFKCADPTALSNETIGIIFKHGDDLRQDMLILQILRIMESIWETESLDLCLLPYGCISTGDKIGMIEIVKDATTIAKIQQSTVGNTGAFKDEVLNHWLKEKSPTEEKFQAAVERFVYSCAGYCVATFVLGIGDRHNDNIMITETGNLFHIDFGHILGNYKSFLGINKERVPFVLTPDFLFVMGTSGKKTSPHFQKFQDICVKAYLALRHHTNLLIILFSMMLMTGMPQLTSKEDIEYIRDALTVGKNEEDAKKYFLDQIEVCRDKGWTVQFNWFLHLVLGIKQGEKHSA
- Sequence (Q8WYR1 whole entry partner, species assumed): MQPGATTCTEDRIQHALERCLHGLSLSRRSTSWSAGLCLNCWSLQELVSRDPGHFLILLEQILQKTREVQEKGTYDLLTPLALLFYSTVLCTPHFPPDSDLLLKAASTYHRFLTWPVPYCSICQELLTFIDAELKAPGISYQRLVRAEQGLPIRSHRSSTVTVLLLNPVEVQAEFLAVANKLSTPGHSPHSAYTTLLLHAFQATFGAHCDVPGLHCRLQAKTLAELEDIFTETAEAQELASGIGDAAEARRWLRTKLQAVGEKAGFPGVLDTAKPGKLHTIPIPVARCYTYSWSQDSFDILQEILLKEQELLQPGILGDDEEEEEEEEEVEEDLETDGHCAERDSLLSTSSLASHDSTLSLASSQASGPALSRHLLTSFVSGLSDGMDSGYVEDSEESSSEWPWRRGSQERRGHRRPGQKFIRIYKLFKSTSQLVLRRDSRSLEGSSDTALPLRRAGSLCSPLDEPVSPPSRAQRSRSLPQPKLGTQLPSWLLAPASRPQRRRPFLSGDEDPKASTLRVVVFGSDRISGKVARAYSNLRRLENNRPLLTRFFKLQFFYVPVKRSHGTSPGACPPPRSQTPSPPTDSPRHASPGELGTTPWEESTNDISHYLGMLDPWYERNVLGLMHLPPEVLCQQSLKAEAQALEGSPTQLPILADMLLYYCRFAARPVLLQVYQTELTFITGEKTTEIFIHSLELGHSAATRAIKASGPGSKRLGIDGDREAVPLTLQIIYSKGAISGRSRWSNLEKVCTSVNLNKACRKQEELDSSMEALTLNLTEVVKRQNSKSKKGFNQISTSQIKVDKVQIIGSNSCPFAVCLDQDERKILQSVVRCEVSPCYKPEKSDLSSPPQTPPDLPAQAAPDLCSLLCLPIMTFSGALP
- PROTOCOL NOTES: PI3Kγ In Vitro Kinase Assay
- ASSAY SETUP: purified recombinant p101/p110γ with G protein β1/γ2 subunits; 20 μM ATP, 25 μM PIP2; 20 minutes at room temperature; radioactive PIP3 readout
pIC50: −log10 of the molar value.
Assign MET to entries whose pIC50 meets or exceeds 6; assign NOT MET to the rest.

O=C1NC(=S)SC1=Cc1ccc2c(c1)N(C(=O)c1cc(F)cc(F)c1)CCO2; MET
O=C1NC(=S)SC1=Cc1ccc2c(c1)N(C(=O)COc1ccc(Cl)cc1)CCO2; MET
O=C1NC(=S)SC1=Cc1ccc2c(c1)N(C(=O)CCc1ccccc1)CCO2; MET
CC(C)(C)C(=O)N1CCOc2ccc(C=C3SC(=S)NC3=O)cc21; NOT MET
O=C1NC(=S)SC1=Cc1ccc2c(c1)N(C(=O)Oc1ccccc1)CCO2; MET

----------
// log10 IC50 lookup, one value per entry
- TEST SYSTEM: p101/p110γ protein (PI3Kγ) (Homo sapiens, UniProt P48736)
- Construct: HA
- PROTOCOL NOTES: PI3Kγ In Vitro Kinase Assay
- ASSAY SETUP: purified recombinant p101/p110γ with G protein β1/γ2 subunits; 20 μM ATP, 25 μM PIP2; 20 minutes at room temperature; radioactive PIP3 readout
QUANTITY KIND: log10 IC50 (log10 of the value in nM)

O=C1NC(=S)SC1=Cc1ccc2c(c1)N(C(=O)c1sccc1Cl)CCO2; 2.42
O=C1NC(=S)SC1=Cc1ccc2c(c1)N(C(=O)C1CCCCC1)CCO2; 1.34
O=C1NC(=S)SC1=Cc1ccc2c(c1)N(C(=O)NCCc1ccccc1)CCO2; 1.23
O=C1NC(=S)SC1=Cc1ccc2c(c1)N(C(=O)c1ccccn1)CCO2; 2.65
CCCCCCC(=O)N1CCOc2ccc(C=C3SC(=S)NC3=O)cc21; 0.60
O=C1NC(=S)SC1=Cc1ccc2c(c1)N(C(=O)c1ccno1)CCO2; 2.39
O=C1NC(=S)SC1=Cc1ccc2c(c1)N(C(=O)NCCc1cccs1)CCO2; 3.60
COc1ccc(C)cc1C(=O)N1CCOc2ccc(C=C3SC(=S)NC3=O)cc21; 2.67
O=C1NC(=S)SC1=Cc1ccc2c(c1)N(C(=O)Nc1ccccc1)CCO2; 1.51

----------
- TEST SYSTEM: p101/p110γ protein (PI3Kγ) (Homo sapiens)
- Construct: HA
- PROTOCOL NOTES: PI3Kγ In Vitro Kinase Assay
- ASSAY SETUP: purified recombinant p101/p110γ with G protein β1/γ2 subunits; 20 μM ATP, 25 μM PIP2; 20 minutes at room temperature; radioactive PIP3 readout
Exam item: assign label 1 to entries whose IC50 is below 60 nM and label 0 to entries at or above 60 nM. Note that a value of exactly 60 nM receives label 0.

COc1cc(C(=O)N2CCOc3ccc(C=C4SC(=S)NC4=O)cc32)cc(OC)c1OC; label 0
O=C1NC(=S)SC1=Cc1ccc2c(c1)N(C(=O)COc1ccccc1)CCO2; label 1
COC(=O)c1ccc(OC(=O)N2CCCOc3ccc(C=C4SC(=S)NC4=O)cc32)cc1; label 0
O=C1NC(=S)SC1=Cc1ccc2c(c1)N(C(=O)Cc1ccc(Cl)c(Cl)c1)CCO2; label 1
O=C1NC(=S)SC1=Cc1ccc2c(c1)N(C(=O)c1ccccc1)CCO2; label 1
Cc1ccc(F)c(C(=O)N2CCOc3ccc(C=C4SC(=S)NC4=O)cc32)c1; label 0
COC(=O)CCC(=O)N1CCOc2ccc(C=C3SC(=S)NC3=O)cc21; label 1
CCCCCCCCC(=O)N1CCOc2ccc(C=C3SC(=S)NC3=O)cc21; label 1
CCCCCC(=O)N1CCOc2ccc(C=C3SC(=S)NC3=O)cc21; label 1
